B1: library; a variant is named by its letters at N, in order (parent)
chain: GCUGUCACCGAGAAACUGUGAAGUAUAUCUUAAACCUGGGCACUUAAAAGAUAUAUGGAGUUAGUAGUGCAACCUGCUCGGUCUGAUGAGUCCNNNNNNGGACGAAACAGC

Variants of: B1
methodSummary: normalized RNA/DNA level without ligand (relative to sTRSVctl = 100) (log10 (% of sTRSVctl)); HEK293T; ligand: cyclic di-GMP (c-di-GMP-II aptamer); higher = less ribozyme self-cleavage, higher mRNA level
testSettings: reporter: mCherry (pCS4076), ligand present: no
normalized RNA/DNA level without ligand (log10) listing for selected variants.
Would you mind answering with just the numeric figure?

normalized RNA/DNA level without ligand (log10) for `GCUGUCACCGAGAAACUGUGAAGUAUAUCUUAAACCUGGGCACUUAAAAGAUAUAUGGAGUUAGUAGUGCAACCUGCUCGGUCUGAUGAGUCCGCCACUGGACGAAACAGC` ?
1.68

Also `GCUGUCACCGAGAAACUGUGAAGUAUAUCUUAAACCUGGGCACUUAAAAGAUAUAUGGAGUUAGUAGUGCAACCUGCUCGGUCUGAUGAGUCCAAGUGCGGACGAAACAGC` , if possible.
1.67

Also `GCUGUCACCGAGAAACUGUGAAGUAUAUCUUAAACCUGGGCACUUAAAAGAUAUAUGGAGUUAGUAGUGCAACCUGCUCGGUCUGAUGAGUCCGCUCCGGGACGAAACAGC` , if possible.
1.79
